- system tested: NPR-B (Homo sapiens, UniProt P20594)
- Construct: a functional assay using endogenously NPR-B expressing GTM-3 cells; endogenous in cells; host or cells: GTM-3 (human glaucoma trabecular meshwork cells)
- experiment summary: NPR-B induced production of cyclic GMP in human glaucoma trabecular meshwork cells (GTM-3)
- Format: cell-based
- particulars: group by EC50 and Emax (CNP = 100%); Table 4; read-out: Activity (group), NPR-B activation assayed with GTM-3 cells
Numbered stars: 1 amine (or outer) side, 2 acyl side, 3 side chain; on linkers, the order of the positions; unused ones are H or OH. Square brackets hold non-standard residues; d marks the D form. Peptide text beside a SMILES is read from it. * marks the point of attachment. Pro(4R-NH2) = N[C@H]1CN[C@H](C(=O)O)C1; X2 = O=C([C@H]1CCCN([*:1])C1)[*:2]; NMeL = CN[C@@H](CC(C)C)C(=O)O; Octanoyl = CCCCCCCC(=O)*
attribute measured: EC50

As a guide, the following entries are already answered.
# compound, EC50
rows = [
    ("CCCCCCCC(=O)N[C@H](C)C(=O)N[C@@H](Cc1ccccc1)C(=O)N[C@H](CCCCN)C(=O)N[C@@H](CC(C)C)C(=O)N1C[C@H](O)C[C@H]1C(=O)N(C)[C@@H](CC(C)C)C(=O)N[C@@H](CC(=O)O)C(=O)N[C@@H](CCCNC(=N)N)C(=O)N[C@H](C(N)=O)[C@@H](C)CC [JAL-1060] (HELM PEPTIDE1{[CCCCCCCC(=O)[*:2]].[dA].F.[dK].L.[Hyp].[meL].D.R.I.[am]}$$$$V2.0)", "< 1000 nM"),
    ("CCCCCCCC(=O)N[C@H](C)C(=O)N[C@@H](Cc1ccccc1)C(=O)N[C@H](CC(C)C)C(=O)N[C@@H](CC(C)C)C(=O)N1C[C@H](O)C[C@H]1C(=O)N[C@@H](CN(C)C)C(=O)N[C@@H](CC(=O)O)C(=O)N[C@@H](CCCNC(=N)N)C(=O)N[C@H](C(N)=O)[C@@H](C)CC [JAL-1367] (HELM PEPTIDE1{[CCCCCCCC(=O)[*:2]].[dA].F.[dL].L.[Hyp].[CN(C)C[C@H](N[*:1])C(=O)[*:2]].D.R.I.[am]}$$$$V2.0)", "< 1000 nM"),
]

Now look at this entry.
State its EC50 on NPR-B (Homo sapiens, UniProt P20594): CCCCCCCC(=O)N1CCC[C@H](C(=O)N[C@@H](Cc2ccccc2)C(=O)N[C@H](CC(C)C)C(=O)N[C@@H](CC(C)C)C(=O)N2C[C@H](N)C[C@H]2C(=O)N(C)[C@@H](CC(C)C)C(=O)N[C@@H](CC(=O)O)C(=O)N[C@@H](CCCNC(=N)N)C(=O)N[C@H](C(N)=O)[C@@H](C)CC)C1 [JAL-1295] (Octanoyl-[X2]F[dL]L[Pro(4R-NH2)][NMeL]DRI-NH2) < 1000 nM

---

- system tested: NPR-B (Homo sapiens, UniProt P20594)
- Construct: a functional assay using endogenously NPR-B expressing GTM-3 cells; endogenous in cells; host or cells: GTM-3 (human glaucoma trabecular meshwork cells)
- experiment summary: NPR-B induced production of cyclic GMP in human glaucoma trabecular meshwork cells (GTM-3)
- Assay type: cell-based
- particulars: group by EC50 and Emax (CNP = 100%); Table 4; read-out: Activity (group), NPR-B activation assayed with GTM-3 cells
pEC50: −log10 of the molar value. Peptide text beside a SMILES is read from it.
attribute measured: pEC50

pEC50 lookup needed for CCCCCCCC(=O)N1CCC[C@H](C(=O)N[C@@H](Cc2ccccc2)C(=O)N[C@H](CCCCN)C(=O)N[C@@H](CC(C)C)C(=O)N2C[C@H](O)C[C@H]2C(=O)N(C)[C@@H](CC(C)C)C(=O)N[C@@H](CC(=O)O)C(=O)N[C@@H](CCCNC(=N)N)C(=O)N[C@H](C(N)=O)[C@@H](C)CC)C1 [JAL-1254] (HELM PEPTIDE1{[CCCCCCCC(=O)[*:2]].[O=C([C@H]1CCCN([*:1])C1)[*:2]].F.[dK].L.[Hyp].[meL].D.R.I.[am]}$$$$V2.0) , thanks. > 6.00

---

- system tested: NPR-B (Homo sapiens)
- Construct: a functional assay using endogenously NPR-B expressing GTM-3 cells; endogenous in cells; host or cells: GTM-3 (human glaucoma trabecular meshwork cells)
- experiment summary: NPR-B induced production of cyclic GMP in human glaucoma trabecular meshwork cells (GTM-3)
- Format: cell-based
- particulars: group by EC50 and Emax (CNP = 100%); Table 4; read-out: Activity (group), NPR-B activation assayed with GTM-3 cells
pEC50: −log10 of the molar value. Numbered stars: 1 amine (or outer) side, 2 acyl side, 3 side chain; on linkers, the order of the positions; unused ones are H or OH. Square brackets hold non-standard residues; d marks the D form. Peptide text beside a SMILES is read from it. * marks the point of attachment. Phe(3,4-Cl2) = N[C@@H](Cc1ccc(Cl)c(Cl)c1)C(=O)O; X4 = NCCCN[C@@H]1C[C@@H](C(=O)[*:2])N([*:1])C1; Pro(4R-NH2) = N[C@H]1CN[C@H](C(=O)O)C1; X2 = O=C([C@H]1CCCN([*:1])C1)[*:2]; Hyp = O=C(O)[C@@H]1C[C@@H](O)CN1; NMeF = CN[C@@H](Cc1ccccc1)C(=O)O; NHcycloheptyl = C1CCCC(N*)CC1; NMeL = CN[C@@H](CC(C)C)C(=O)O; Octanoyl = CCCCCCCC(=O)*
attribute measured: pEC50

As a guide, the following entries are already answered.
# molecule, pEC50
records = [
    ("CCCCCCCC(=O)N1CCC[C@H](C(=O)N[C@@H](Cc2ccc(Cl)c(Cl)c2)C(=O)N[C@H](CC(C)C)C(=O)N[C@@H](CC(C)C)C(=O)N2C[C@H](O)C[C@H]2C(=O)N(C)[C@@H](CC(C)C)C(=O)N[C@@H](CC(=O)O)C(=O)N2CCC[C@H]2C(=O)NC2CCCCCC2)C1 [JAL-1599, Occ-Sni-Eaa-leu-Leu-Hyp-Nml-Asp-Pro-Che] (Octanoyl-[X2][Phe(3,4-Cl2)][dL]L[Hyp][NMeL]DP-NHcycloheptyl)", "> 6.00"),
    ("CCCCCCCC(=O)N1CCC[C@H](C(=O)N[C@@H](Cc2ccccc2)C(=O)N[C@H](CC(C)C)C(=O)N[C@@H](CC(C)C)C(=O)N2C[C@H](N)C[C@H]2C(=O)N(C)[C@@H](CC(C)C)C(=O)N[C@@H](CC(=O)O)C(=O)N[C@@H](CCCNC(=N)N)C(=O)NC2CCCCCC2)C1 [JAL-1682, Occ-Sni-Phe-leu-Leu-Tap-Nml-Asp-Arg-Che] (Octanoyl-[X2]F[dL]L[Pro(4R-NH2)][NMeL]DR-NHcycloheptyl)", "> 6.00"),
    ("CCCCCCCC(=O)N1CCC[C@H](C(=O)N(C)[C@@H](Cc2ccccc2)C(=O)N[C@H](CC(C)C)C(=O)N[C@@H](CC(C)C)C(=O)N2C[C@H](O)C[C@H]2C(=O)N(C)[C@@H](CC(C)C)C(=O)N[C@@H](CC(=O)O)C(=O)N2CCC[C@H]2C(=O)NC2CCCCCC2)C1 [JAL-1597, Occ-Sni-Nmf-leu-Leu-Hyp-Nml-Asp-Pro-Che] (Octanoyl-[X2][NMeF][dL]L[Hyp][NMeL]DP-NHcycloheptyl)", "> 6.00"),
]

pEC50 lookup needed for CCCCCCCC(=O)N[C@@]1(C)CCN([C@@H](Cc2ccccc2)C(=O)N[C@H](CC(C)C)C(=O)N[C@@H](CC(C)C)C(=O)N2C[C@H](O)C[C@H]2C(=O)N(C)[C@@H](CC(C)C)C(=O)N[C@@H](CC(=O)O)C(=O)N[C@@H](CCCNC(=N)N)C(=O)N[C@H](C(N)=O)[C@@H](C)CC)C1=O [JAL-1774] , thanks. > 6.00

Would you kindly repeat that for CCCCCCCC(=O)N1CCC[C@H](C(=O)N[C@@H](Cc2ccccc2)C(=O)N[C@H](CC(C)C)C(=O)N[C@@H](CC(C)C)C(=O)N2C[C@H](NCCCN)C[C@H]2C(=O)N(C)[C@@H](CC(C)C)C(=O)N[C@@H](CC(=O)O)C(=O)N[C@@H](CCCNC(=N)N)C(=O)N[C@H](C(N)=O)[C@@H](C)CC)C1 [JAL-1372] (Octanoyl-[X2]F[dL]L[X4][NMeL]DRI-NH2) ? > 6.00

---

- system tested: NPR-B (Homo sapiens, UniProt P20594)
- Construct: a functional assay using endogenously NPR-B expressing GTM-3 cells; endogenous in cells; host or cells: GTM-3 (human glaucoma trabecular meshwork cells)
- Sequence (P20594 23-1047): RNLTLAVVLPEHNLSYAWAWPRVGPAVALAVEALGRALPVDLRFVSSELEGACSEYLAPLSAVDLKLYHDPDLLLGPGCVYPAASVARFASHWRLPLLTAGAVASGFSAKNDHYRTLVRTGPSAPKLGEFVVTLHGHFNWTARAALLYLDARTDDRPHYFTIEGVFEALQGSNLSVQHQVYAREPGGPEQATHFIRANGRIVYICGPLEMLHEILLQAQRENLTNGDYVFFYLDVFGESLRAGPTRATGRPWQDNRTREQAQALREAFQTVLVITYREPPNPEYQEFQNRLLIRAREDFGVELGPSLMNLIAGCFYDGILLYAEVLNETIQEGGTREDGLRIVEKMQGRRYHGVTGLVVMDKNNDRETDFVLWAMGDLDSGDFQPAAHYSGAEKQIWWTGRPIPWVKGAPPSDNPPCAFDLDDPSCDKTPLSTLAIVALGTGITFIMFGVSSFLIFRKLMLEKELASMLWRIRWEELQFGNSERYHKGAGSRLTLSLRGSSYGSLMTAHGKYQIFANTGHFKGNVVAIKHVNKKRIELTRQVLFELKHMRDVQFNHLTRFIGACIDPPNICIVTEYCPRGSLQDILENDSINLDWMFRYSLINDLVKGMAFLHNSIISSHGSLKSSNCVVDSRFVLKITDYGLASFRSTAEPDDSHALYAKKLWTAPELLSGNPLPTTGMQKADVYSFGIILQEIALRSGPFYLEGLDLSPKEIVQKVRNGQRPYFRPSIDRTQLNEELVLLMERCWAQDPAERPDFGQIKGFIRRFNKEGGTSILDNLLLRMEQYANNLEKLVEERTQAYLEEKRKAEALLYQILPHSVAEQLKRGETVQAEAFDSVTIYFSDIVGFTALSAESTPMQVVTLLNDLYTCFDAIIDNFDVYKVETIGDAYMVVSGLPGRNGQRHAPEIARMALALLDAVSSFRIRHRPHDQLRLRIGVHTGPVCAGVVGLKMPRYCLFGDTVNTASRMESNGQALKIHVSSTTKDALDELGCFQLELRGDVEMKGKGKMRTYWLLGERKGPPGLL
- experiment summary: NPR-B induced production of cyclic GMP in human glaucoma trabecular meshwork cells (GTM-3)
- Type: cell-based
- particulars: group by EC50 and Emax (CNP = 100%); Table 4; read-out: Activity (group), NPR-B activation assayed with GTM-3 cells
Numbered stars: 1 amine (or outer) side, 2 acyl side, 3 side chain; on linkers, the order of the positions; unused ones are H or OH. Square brackets hold non-standard residues; d marks the D form. Peptide text beside a SMILES is read from it. * marks the point of attachment. Phe(3,4-Cl2) = N[C@@H](Cc1ccc(Cl)c(Cl)c1)C(=O)O; X2 = O=C([C@H]1CCCN([*:1])C1)[*:2]; Hyp = O=C(O)[C@@H]1C[C@@H](O)CN1; Aoc(2) = CCCCCC[C@H](N)C(=O)O; NMeL = CN[C@@H](CC(C)C)C(=O)O; Octanoyl = CCCCCCCC(=O)*; AEEA = NCCOCCOCC(=O)O
attribute measured: EC50

# compound, EC50
data = [
    ("CCCCCC[C@H](NC(=O)COCCOCCN)C(=O)N1CCC[C@H](C(=O)N[C@@H](Cc2ccccc2)C(=O)N[C@H](CC(C)C)C(=O)N[C@@H](CC(C)C)C(=O)N2C[C@H](O)C[C@H]2C(=O)N(C)[C@@H](CC(C)C)C(=O)N[C@@H](CC(=O)O)C(=O)N[C@@H](CCCNC(=N)N)C(=O)N[C@H](C(N)=O)[C@@H](C)CC)C1 [JAL-1808] (H-[AEEA][Aoc(2)][X2]F[dL]L[Hyp][NMeL]DRI-NH2)", "< 1000 nM"),
]

EC50 lookup needed for CCCCCCCC(=O)N1CCC[C@H](C(=O)N[C@@H](Cc2ccc(Cl)c(Cl)c2)C(=O)N[C@H](CC(C)C)C(=O)N[C@@H](CC(C)C)C(=O)N2C[C@H](O)C[C@H]2C(=O)N(C)[C@@H](CC(C)C)C(=O)N[C@@H](CC(=O)O)C(=O)N[C@@H](CCCNC(=N)N)C(=O)N[C@H](C(N)=O)[C@@H](C)CC)C1 [JAL-1496] (Octanoyl-[X2][Phe(3,4-Cl2)][dL]L[Hyp][NMeL]DRI-NH2) , thanks. < 1000 nM

Would you kindly repeat that for CC[C@H](C)[C@H](NC(=O)[C@H](CCCNC(=N)N)NC(=O)[C@H](CC(=O)O)NC(=O)[C@H](CC(C)C)N(C)C(=O)[C@@H]1C[C@@H](O)CN1C(=O)[C@H](CC(C)C)NC(=O)[C@@H](CC(C)C)NC(=O)[C@H](Cc1ccccc1)NC(=O)[C@H]1CCCN(C(=O)CCCCc2ccccc2)C1)C(N)=O [JAL-1606] (HELM PEPTIDE1{[O=C(CCCCc1ccccc1)[*:2]].[O=C([C@H]1CCCN([*:1])C1)[*:2]].F.[dL].L.[Hyp].[meL].D.R.I.[am]}$$$$V2.0) ? < 1000 nM
